Ref: ChEMBL document CHEMBL5385842

# Organism: Homo sapiens
# Experimental Protocol: Selectivity index, ratio of IC50 for human WI-38 cells to IC50 for human Caco-2 cells
Endpoint: Ratio IC50

>>> val("O=C1c2ccccc2C(=O)N1c1ccc(NC(=O)C2(OC(=O)C(F)(F)F)CCCCC2)cc1")
37.7
>>> val("Nc1ccc(NC(=O)C2(O)CCCCC2)cc1")
20.2
>>> val("O=C(Cc1c[nH]c2ccccc12)OC1(C(=O)Nc2ccc(N3C(=O)c4ccccc4C3=O)cc2)CCCCC1")
42.6

---

# Tested on: A549
# Experimental Protocol: Induction of apoptosis in human A549 cells assessed as fold increase in caspase 3/7 level at IC50 by fluorescence based assay relative to control
# Format: functional
# maps each entry to its fold change (FC)
Endpoint: fold change (FC)

>>> val("O=c1[nH]cc(F)c(=O)[nH]1")
1.084
>>> val("O=C(Cc1c[nH]c2ccccc12)OC1(C(=O)Nc2ccc(N3C(=O)c4ccccc4C3=O)cc2)CCCCC1")
2.99
>>> val("O=C(COc1ccccc1-c1nc(-c2ccccc2)no1)OC1(C(=O)Nc2ccc(N3C(=O)c4ccccc4C3=O)cc2)CCCCC1")
1.505
>>> val("O=C(/C=C/c1ccc(C(F)(F)F)cc1)OC1(C(=O)Nc2ccc(N3C(=O)c4ccccc4C3=O)cc2)CCCCC1")
2.486
>>> val("O=C(CNS(=O)(=O)c1ccccc1)OC1(C(=O)Nc2ccc(N3C(=O)c4ccccc4C3=O)cc2)CCCCC1")
2.282
